Items are presented alongside their recorded Ki.
# Assayed target: neuronal nicotinic acetylcholine receptors (Rattus norvegicus, UniProt P09483+P12390)
# Construct: crude synaptic membrane preparations from whole rat brain; from tissue; host or cells: whole rat brain, crude synaptic membranes
# Sequence (P09483 31-630): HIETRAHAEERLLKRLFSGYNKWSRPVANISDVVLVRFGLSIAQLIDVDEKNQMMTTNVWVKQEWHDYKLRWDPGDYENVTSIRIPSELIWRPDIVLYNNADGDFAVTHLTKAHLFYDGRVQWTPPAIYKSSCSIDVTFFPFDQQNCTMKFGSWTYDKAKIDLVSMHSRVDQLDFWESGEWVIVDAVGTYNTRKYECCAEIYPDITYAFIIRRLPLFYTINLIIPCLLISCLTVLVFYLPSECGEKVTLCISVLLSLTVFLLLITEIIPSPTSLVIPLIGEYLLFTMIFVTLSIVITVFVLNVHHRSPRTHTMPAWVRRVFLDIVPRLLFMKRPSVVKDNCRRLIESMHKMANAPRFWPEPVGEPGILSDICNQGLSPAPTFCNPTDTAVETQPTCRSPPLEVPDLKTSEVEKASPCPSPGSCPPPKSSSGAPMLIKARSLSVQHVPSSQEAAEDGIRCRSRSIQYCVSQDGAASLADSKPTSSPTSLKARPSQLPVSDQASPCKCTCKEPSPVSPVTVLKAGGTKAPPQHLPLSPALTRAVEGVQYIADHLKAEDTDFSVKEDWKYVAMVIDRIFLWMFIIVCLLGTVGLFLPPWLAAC
# Sequence (P12390 25-500): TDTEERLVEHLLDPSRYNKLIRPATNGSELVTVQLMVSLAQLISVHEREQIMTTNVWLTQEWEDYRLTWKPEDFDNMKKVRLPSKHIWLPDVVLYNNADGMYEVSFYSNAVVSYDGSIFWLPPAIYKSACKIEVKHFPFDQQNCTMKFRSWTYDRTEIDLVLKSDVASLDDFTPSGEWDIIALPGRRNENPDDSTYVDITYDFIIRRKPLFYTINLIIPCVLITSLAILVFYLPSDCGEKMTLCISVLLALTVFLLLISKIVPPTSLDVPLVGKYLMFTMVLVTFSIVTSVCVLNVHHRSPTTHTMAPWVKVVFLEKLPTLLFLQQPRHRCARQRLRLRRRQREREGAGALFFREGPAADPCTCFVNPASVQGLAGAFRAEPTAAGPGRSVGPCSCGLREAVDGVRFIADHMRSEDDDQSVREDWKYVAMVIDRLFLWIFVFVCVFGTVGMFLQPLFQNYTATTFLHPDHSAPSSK
# Run description: [3H]-cytisine binding to neuronal nicotinic acetylcholine receptors, crude synaptic membranes from whole rat brain
# Experimental conditions: [3H]-CYT 1.25 nM, whole rat brain membranes, 60 minutes at 4° C.; Cheng and Prusoff correction; Table 2; read-out: K1 (nm)

Recorded Ki, per entry:
Cc1cc(OCCC(C)N)cnc1Cl (stereo not shown) ... 0.025 µM
CC(N)CCOc1ccc(Cl)nc1 (stereo not shown) [Example 44, p-toluenesulfonate] ... 0.02 µM
CC(N)CCOc1ccc(F)nc1 (stereo not shown) ... 0.122 µM
Cc1cc(OCCC(C)N(C)C)cnc1Cl (stereo not shown) ... 0.0013 µM
CC(CCOc1cnc(Cl)c(Br)c1)N(C)C (stereo not shown) ... 0.0031 µM
CC(N)CCOc1cnc(Cl)c(Br)c1 (stereo not shown) ... 0.031 µM

From here, focus on the item given below.
Entry CC(CCOc1ccc(Cl)nc1)N(C)C (stereo not shown) , Ki reported as 0.018 µM
